Values from paper PMC5549332

target: GLO1 (Oryza sativa, UniProt Q10CE4)
Construct: complete ORF, N-terminal 6xHis tag kept, expressed in Saccharomyces cerevisiae INVSc1, Ni-IDA purified, subunit about 40 kDa, homo-oligomer
Sequence (Q10CE4 1-369): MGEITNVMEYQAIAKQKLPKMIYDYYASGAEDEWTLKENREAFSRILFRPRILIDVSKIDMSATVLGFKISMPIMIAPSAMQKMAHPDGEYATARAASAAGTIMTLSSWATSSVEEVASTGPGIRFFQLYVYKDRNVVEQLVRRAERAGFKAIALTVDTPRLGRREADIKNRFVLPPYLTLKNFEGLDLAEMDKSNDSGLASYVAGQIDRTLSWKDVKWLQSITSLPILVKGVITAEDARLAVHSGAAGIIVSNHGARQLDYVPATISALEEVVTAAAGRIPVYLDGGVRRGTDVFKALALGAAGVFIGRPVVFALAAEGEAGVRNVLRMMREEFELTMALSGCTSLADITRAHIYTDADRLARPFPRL
assay-summary: peroxidase-coupled H2O2 assay, […] nm; slope replot of Lineweaver-Burk
assay-endpoint: Ki (mM)

* O=C(O)C(=O)O [oxalate] | 4.57

---

target: GLO1 + 4 (Oryza sativa, UniProt Q10CE4+Q6YT73)
Construct: co-expressed N-terminally 6xHis-tagged GLO1 (pYES3) and GLO4 (pYES2) in Saccharomyces cerevisiae, Ni-IDA purified; GLO4/GLO5 names may be swapped in databases
assay-summary: peroxidase-coupled H2O2 assay, […] nm; slope replot of Lineweaver-Burk
assay-endpoint: Ki (mM)

- O=C(O)C(=O)O [oxalate]: 5.49

---

target: GLO4 (Oryza sativa)
Construct: gene GLO5; complete ORF, N-terminal 6xHis tag kept, expressed in Saccharomyces cerevisiae INVSc1, Ni-IDA purified, subunit about 40 kDa, homo-oligomer; GLO4/GLO5 names may be swapped in databases, go by printed locus
Sequence (Q6YT73 whole entry): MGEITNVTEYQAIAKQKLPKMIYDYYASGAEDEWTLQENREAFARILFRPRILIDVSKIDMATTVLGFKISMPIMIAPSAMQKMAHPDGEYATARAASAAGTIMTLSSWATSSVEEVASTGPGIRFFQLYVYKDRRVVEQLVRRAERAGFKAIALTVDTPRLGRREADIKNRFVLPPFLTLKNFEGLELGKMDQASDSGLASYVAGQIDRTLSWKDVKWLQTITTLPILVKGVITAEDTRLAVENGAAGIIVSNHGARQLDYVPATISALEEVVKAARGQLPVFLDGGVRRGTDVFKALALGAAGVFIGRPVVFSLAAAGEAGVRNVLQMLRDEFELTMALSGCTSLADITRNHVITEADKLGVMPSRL
assay-summary: peroxidase-coupled H2O2 assay, […] nm; slope replot of Lineweaver-Burk
Type: biochemical
assay-endpoint: Ki (mM)

- O=C(O)C(=O)O [oxalate]: 6.34
